The origin of these recorded values is PubChem BioAssay (NCI).

# Tested on: HT29 colon
# assay.comment: NCI tumour cell line growth inhibition, 48 h
In this section, each of the compounds is paired with its reported TGI.

compound	TGI
OCCOCCO/N=C1\C(c2c(O)[nH]c3ccccc23)=Nc2ccccc21	7.11 µM
COc1ccc(-c2ncnc(-c3ccc(OC)c(OC)c3)n2)cc1OC	> 100 µM
C=C1CC[C@@H]2C(C)(C)[C@H](O)CC[C@@]2(C)[C@@H]1COc1ccc2ccc(=O)oc2c1	> 100 µM
C[C@@H]1OC(=O)C[C@H]2CC(=O)N(CCC3CN(C(=O)c4ccccc4)c4ccccc43)C[C@@H]21 (some centres undefined)	> 100 µM
Oc1cc2ccccc2cc1-c1n[nH]c(=S)n1CCc1ccccc1	91.8 µM

q: Lab note: HT29 colon assay, enter TGI for `COc1ccc(NC(=O)CSc2nnc(-c3ccc(N=Cc4ccc(Cl)cc4)cc3)o2)cc1` here
a: > 100 µM

q: Lab note: HT29 colon assay, enter TGI for COC(=O)C1C(O)C(C)C(O)C(C)(O)C=C(C)C2=C3C(=C(C)C(=O)c4c(O)c(c(C)c(OC(C)=O)c43)NC(=O)C(C)=C/C=C\C(C)(O)C(O)C(C)C1O)OCO2 (centres undefined) here
a: > 100 µM

q: Lab note: HT29 colon assay, enter TGI for `Cc1ccc2c(=O)cc(-c3ccc(Cl)cc3)[nH]c2n1` here
a: > 29.4 µM

q: Lab note: HT29 colon assay, enter TGI for `Cc1cccc(C)c1NC(=O)/C=C/c1ccccc1` here
a: > 100 µM

q: Lab note: HT29 colon assay, enter TGI for CC(C)(O)C1CC[C@]2(C)CC[C@]3(C)[C@H](CC[C@@H]4[C@@]5(C)CC[C@H](O)C(C)(C)[C@@H]5CC[C@]43C)[C@@H]12 (some centres undefined) here
a: > 100 µM
